src = PubChem BioAssay AID256

System: CD2F1 mice, L1210 leukemia ip, survival T/C
Test: NCI In Vivo Anticancer Drug Screen. Data for tumor model L1210 Leukemia (intraperitoneal) in CD2F1 (CDF1) mice
Settings: endpoint: mean survival time; dose: 100.0 mg/kg/injection; schedule: Q04DX002 (ip); vehicle: saline with Tween-80; higher = longer survival
Procedure: The antitumor activity of compounds was measured in mice bearing transplantable tumors. Survival or tumor size were measured and the results are expressed as the measurement made in the treated group (T) divided by the measurement made in the vehicle treated control group (C). The tumor model used in this assay is L1210 Leukemia (intraperitoneal) in CD2F1 (CDF1) mice
Inconclusive results and toxic doses are left out.
measure-name: T/C

{"molecule": "Nc1ccc(N=Nc2ccc3nccc(N)c3c2)c(N)n1", "system-name": "CD2F1 mice, L1210 leukemia ip, survival T/C", "reported": "119 % of control"}

Now examine the next entry.
Fill blank: measured T/C of the molecule O=C(CCCC(=O)c1ccccc1)OC1(c2ccccc2)CCCC(=O)O1 (stereo not drawn) is ____.
98 % of control
